Entries and their inhibition at 2 µM
- ASSAY SYSTEM: CYP3A4 (Homo sapiens)
- Sequence (P08684 whole entry): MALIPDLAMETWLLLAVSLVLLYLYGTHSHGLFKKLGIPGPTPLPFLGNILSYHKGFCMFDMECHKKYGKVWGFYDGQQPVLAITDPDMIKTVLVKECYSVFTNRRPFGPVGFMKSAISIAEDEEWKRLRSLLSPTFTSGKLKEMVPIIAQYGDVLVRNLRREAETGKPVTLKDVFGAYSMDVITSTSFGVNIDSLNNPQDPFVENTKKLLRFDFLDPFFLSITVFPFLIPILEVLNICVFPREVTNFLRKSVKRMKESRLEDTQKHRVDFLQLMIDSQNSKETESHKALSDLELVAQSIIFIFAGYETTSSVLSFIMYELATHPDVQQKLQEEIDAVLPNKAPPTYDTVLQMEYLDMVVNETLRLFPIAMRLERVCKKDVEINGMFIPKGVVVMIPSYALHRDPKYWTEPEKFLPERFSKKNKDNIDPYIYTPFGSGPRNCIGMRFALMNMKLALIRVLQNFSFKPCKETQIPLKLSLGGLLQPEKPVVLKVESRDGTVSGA
- EXPERIMENTAL DETAILS: Inhibition of cytochrome P450 3A4 was determined at 2 uM
// units = %; emit number, no label

Which inhibition at 2 µM reading was recorded for the compound COc1ccc(OCC(O)CN2CCN(C(CNC(=O)c3ccc(OC)cc3)c3ccccc3)CC2)cc1 (centres undefined) ? 95

Which inhibition at 2 µM reading was recorded for the compound COc1ccc(CNC(=O)C(c2ccc(C)cc2)N2CCN(CC(O)COc3c(C)cccc3C)CC2)cc1 (centres undefined) ? 74

Which inhibition at 2 µM reading was recorded for the compound Cc1cccc(S(=O)(=O)NCC(c2ccc(C(F)(F)F)cc2)N2CCN(CC(O)COc3ccc(Br)cc3)CC2)c1 (centres undefined) ? 76

Which inhibition at 2 µM reading was recorded for the compound Cc1cccc(C)c1OCC(O)CN1CCN(C(C(=O)NCc2ccccc2)c2ccc(F)cc2)CC1 (centres undefined) ? 38

---

- ASSAY SYSTEM: Cytochrome P450 2D6 (Homo sapiens, UniProt P10635)
- Sequence (P10635 whole entry): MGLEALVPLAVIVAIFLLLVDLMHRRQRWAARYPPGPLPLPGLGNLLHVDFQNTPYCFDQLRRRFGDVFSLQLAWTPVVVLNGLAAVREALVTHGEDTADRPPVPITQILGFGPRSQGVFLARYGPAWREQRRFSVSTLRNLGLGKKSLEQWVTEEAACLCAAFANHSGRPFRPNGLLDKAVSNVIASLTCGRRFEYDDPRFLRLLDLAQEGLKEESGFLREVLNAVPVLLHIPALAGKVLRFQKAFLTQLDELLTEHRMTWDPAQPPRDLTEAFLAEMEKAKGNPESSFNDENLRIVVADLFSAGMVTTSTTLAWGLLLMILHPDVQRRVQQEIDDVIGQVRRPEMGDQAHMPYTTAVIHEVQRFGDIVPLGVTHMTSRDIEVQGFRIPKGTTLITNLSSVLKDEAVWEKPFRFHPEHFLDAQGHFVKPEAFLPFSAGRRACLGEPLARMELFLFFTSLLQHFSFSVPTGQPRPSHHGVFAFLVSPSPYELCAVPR
Label YES when Ki < 5 µM; otherwise NO.

Known results for molecules:
[[record]]
molecule = "COc1ccc(OCC(O)CN2CCN(C(CNC(=O)c3ccccc3OC)c3ccccc3)CC2)cc1 (centres undefined)"
label_class = "NO"

[[record]]
molecule = "COc1ccc(OC)c(S(=O)(=O)NCC(c2ccccc2)N2CCN(CC(O)COc3ccc(Br)cc3)CC2)c1 (centres undefined)"
label_class = "NO"

[[record]]
molecule = "O=C(NCC(c1ccccc1)N1CCN(CC(O)COc2ccccc2)CC1)c1ccc(F)cc1 (centres undefined)"
label_class = "NO"


I'd appreciate it if you could check whether COc1ccc(OCC(O)CN2CCN(C(CNC(=O)c3ccc(OC)cc3)c3ccccc3)CC2)cc1 (centres undefined) has Ki smaller than 5 µM. NO

I'd appreciate it if you could check whether COc1ccc(C(=O)NCC(c2ccccc2)N2CCN(CC(O)COc3ccc(Cl)cc3)CC2)cc1 (centres undefined) has Ki smaller than 5 µM. YES

I'd appreciate it if you could check whether COc1ccc(OCC(O)CN2CCN(C(CNC(=O)c3ccc(F)cc3)c3ccccc3)CC2)cc1 (centres undefined) has Ki smaller than 5 µM. YES

I'd appreciate it if you could check whether Cc1ccc(C(C(=O)NCc2ccccc2)N2CCN(CC(O)COc3c(C)cccc3C)CC2)cc1 (centres undefined) has Ki smaller than 5 µM. YES

I'd appreciate it if you could check whether Cc1cccc(C)c1OCC(O)CN1CCN(C(C(=O)NCc2ccccc2)c2ccc(F)cc2)CC1 (centres undefined) has Ki smaller than 5 µM. YES
